Molecular target: Rv1466 (Mycobacterium tuberculosis, UniProt O53157)
Sequence (O53157 1-115 limits assumed): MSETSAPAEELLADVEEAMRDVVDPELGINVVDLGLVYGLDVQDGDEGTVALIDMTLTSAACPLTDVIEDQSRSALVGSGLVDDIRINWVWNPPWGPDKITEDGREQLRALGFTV
Test: […]; bound species is […] Da (half of the disulfide dimer)
READOUT: Kd (µM)
Report the value in µM with no unit label.

Would you kindly share the measured Kd for `COc1ccc(-c2nc(N)n(C)c2SSc2c(-c3ccc(OC)cc3)nc(N)n2C)cc1` ?
5.3
